Assay: NCI Yeast Anticancer Drug Screen. Data for the bub3 strain (AID 167)
Conditions: S. cerevisiae bub3 mutant strain, at 50.0 µM
Protocol: Growth inhibition of yeast strains with defined genetic alterations is measured as a screen for potential anti-cancer activity. Selected strains with alterations in DNA damage repair or cell cycle control were exposed to compounds and growth inhibition was measured relative to vehicle treated controls. The strain used in this assay is bub3
The panel holds about 79,000 compounds, 15% with a hit somewhere; the sample as a whole holds those more often. Calls of active or inactive are those of the source. Cut-off read from the data, not from the text of the source: active = growth inhibition above about 70%; inactive = the rest.
Labels: YES (active), NO (inactive)

| compound | qualitativeLabel |
| --- | --- |
| O=C1OC(c2ccccc2)(c2ccc(-c3ccc(O)cc3)cc2)c2ccccc21 (stereo unspecified) | YES |
| Cc1ccc2sc3ccc(N)cc3c(=O)c2c1 | NO |
| CC(O)C(NC(=O)OCc1ccccc1)C(=O)OC(c1ccccc1)c1ccccc1 (stereo unspecified) | YES |
| COC(=O)c1nc(NC#N)[nH]c(=O)c1CCCCCc1cnc(NC#N)nc1 | NO |
| CCOC(=O)c1nc(SC)sc1NC(=O)c1ccccc1Cl | NO |
| c1ccc(N/N=C2/CCCC3/C(=N\Nc4ccccc4)CCCC23)cc1 (stereo unspecified) | NO |

---

Test: NCI Yeast Anticancer Drug Screen. Data for the mec2-1 strain (AID 157)
Details: S. cerevisiae mec2-1 strain, at 50.0 µM (retest, dose inferred, filed as 5.0), stronger effect = higher value
Compounds without any hit were thinned out: in the full panel of roughly 79,000, 15% have a hit.
Measured growth inhibition of individual entries
measurementLabel: growth inhibition (%)

| molecule | assayValue |
| --- | --- |
| NCCNCCNCc1c2ccccc2c(CNCCNCCN)c2ccccc12 | -3 |
| Cc1ccc(Cc2n[nH]c(=O)[nH]2)cc1 | 14 |
| Cc1ccccc1N1C(=O)c2ccccc2C1=O | 11 |
| COC1=CC(=O)c2c(ccc3ncnc(N)c23)C1=O | 15 |
| Cc1c(Cl)cccc1NC(=O)/C(Cl)=C(\Cl)C(=O)O | 41 |
| C/C=C/C=C\C1OC(O)([C@H](CC)C(=O)NC/C=C/C=C(\C)[C@H](OC)C(C)C2OC(\C=C/C=C/C=C(\C)C(=O)c3c(O)ccn(C)c3=O)[C@H](O)[C@@H]2O)C(O)C(O)C1(C)C (stereo not given in full) | -18 |
| COc1ccc2nc3cc(Cl)ccc3c(NCCC[N+](C)(C)CCCCCCCCCC[N+](C)(C)CCCNc3c4ccc(Cl)cc4nc4ccc(OC)cc34)c2c1 | 98 |
| COc1ccc(C=Nc2ccccc2O)cc1 | 22 |
| CSc1ccc(C(=O)C(=O)c2ccc(SC)s2)s1 | -8 |
| CN1CCCC(C(=O)OCC(=O)C2(O)CCC3C4CCC5=CC(=O)CCC5(C)C4C(O)CC32C)C1 (stereo not given) | 0 |

---

Assay: NCI Yeast Anticancer Drug Screen. Data for the rad50 strain (AID 155);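 note: 0% = growth of vehicle-only cultures of the same strain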
Conditions: S. cerevisiae rad50 strain growth inhibition; at 50.0 µM
This is part of a sample that, as a whole, favours compounds with a hit. Of some 79,000 tested, about 15% had one in any assay. The source made the active and inactive calls. No stated cut-off is given here; in the data, active means growth inhibition above about 70%; inactive means the rest.
Possible outcomes: active, inactive

| compound | qualitativeLabel |
| --- | --- |
| CCCCCCCSCc1nc2ccccc2c(C)[n+]1[O-] | active |
| COc1cccc2c1C(=O)c1c(O)c3c(c(O)c1C2=O)C[C@@](O)(/C(C)=N/NS(C)(=O)=O)C[C@@H]3OC1CC(N)C(O)C(C)O1 (stereo not given in full) | active |
| O=C(O)CCCc1ccc2c(c1)CC1(C2)Cc2ccc(CCCC(=O)O)cc2C1 | inactive |
| O=C(c1ccccc1)c1ccc(Cl)cc1 | inactive |
| O=S(=O)(ON=C1C=CC(=NOS(=O)(=O)c2ccccc2)C=C1)c1ccccc1 | active |
| CCCCN1CSC(=S)N(Cc2ccccc2)C1 | inactive |
| N=c1c2ccccc2cc2c3ccccc3ccn12 | active |
| CN(C)CC[N+](C)(C)Cc1ccc(C[N+](C)(C)CC[N+](C)(C)Cc2ccc(CCl)cc2)cc1 | active |
| COc1ccc(C2CN(C(=O)c3ccccc3)N=C(c3ccccc3)O2)cc1 (stereo not given) | active |
| Ic1ccc2c(c1)N(c1ccccc1)c1cc(N=c3ccc4nc5ccc(I)cc5n(-c5ccccc5)c-4c3)ccc1N2 | active |

---

Assay: NCI Yeast Anticancer Drug Screen. Data for the mlh1 rad18 strain (AID 175)
Conditions: S. cerevisiae mlh1 rad18 strain growth inhibition; at 50.0 µM; stronger effect = higher value
The panel holds about 79,000 compounds, 15% with a hit somewhere; the sample as a whole holds those more often. Active and inactive are the calls of the source. Rule as the data show it: active = growth inhibition above about 70%; inactive = the rest.
Here, each record is paired with measured growth inhibition data.

| compound | growth inhibition |
| --- | --- |
| O=C(O)CCC(O)=C1S(=O)(=O)OCCOS1(=O)=O | 8.3% (inactive) |
| CC(=O)C1=C(C)O/C(=C/c2ccc(Cl)cc2)C1=O | 91.8% (active) |
| CC1(C)CC(=O)C(CSC(=O)c2ccccc2)=C(O)C1 | -6.2% (inactive) |
| C/C(=N/O)C1CC(CCC2([N+](=O)[O-])CCC(C)(O)C(/C(C)=N/O)C2)([N+](=O)[O-])CCC1(C)O (stereo not given) | 19.9% (inactive) |
| CC(=O)N(C(C)=O)C1=C2c3ccccc3N(S(=O)(=O)c3ccccc3)C2n2c(=O)n(-c3ccccc3)c(=O)n2C1 (stereo not given) | 55.7% (inactive) |

---

Assay: NCI Yeast Anticancer Drug Screen. Data for the bub3 strain (AID 167)
Settings: S. cerevisiae bub3 mutant strain, at 5.0 µM (retest, dose inferred, filed as 0.5), stronger effect = higher value
This is part of a sample that, as a whole, favours compounds with a hit. Of some 79,000 tested, about 15% had one in any assay.
measurementLabel: growth inhibition (%)

| molecule | displayUnit | assayValue |
| --- | --- | --- |
| COC(=O)c1ccc(NCC2=C(Br)C(=O)C=CC2=O)cc1Cl | % | 44 |
| CC(=O)OC1C2C3C(C=CC2[C@H]1OC(C)=O)C1C3C=CC2C1C(OC(C)=O)[C@@H]2OC(C)=O (stereo not given in full) | % | -2 |
| CCCn1c2ccccc2c2ccc3c(c21)C(=O)C=CC3=O | % | 37 |
| CC(C)(CC#N)c1cc(CC(C)(C)c2cc(CC(C)(C)c3cc(CC(C)(C)C4(C)OCCO4)no3)no2)no1 | % | -3 |
| C=C1CC2(CCS(=O)(=O)c3ccccc32)OC1=O (stereo not given) | % | 2 |

---

Experiment: NCI Yeast Anticancer Drug Screen. Data for the cln2 rad14 strain (AID 165);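 note: 0% = growth equal to vehicle treated cultures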
Conditions: S. cerevisiae cln2 rad14 strain, at 50.0 µM (retest, dose inferred, filed as 5.0), stronger effect = higher value
This is part of a sample that, as a whole, favours compounds with a hit. Of some 79,000 tested, about 15% had one in any assay. *1 amine or outer side, *2 acyl side, *3 side chain or, on linkers, in order; H or OH if unused. Where a SMILES comes first, the peptide text is derived from it. Bridges are numbered along the chain shown (N, C = ends). [ ]: non-standard residue; d: D form. The star is where a group is joined. ξ: configuration not given here. ξOrn(4,5-diOH) = O=C(C(CC(O)C(O)N[*:3])N[*:1])[*:2]; ξhTyr(βξ-OH,γξ-OH) = NC(C(=O)O)C(O)C(O)c1ccc(O)cc1; ξPro(3ξ-OH,4ξ-Me) = CC1CNC(C(=O)O)C1O; X1 = CCCCC/C=C/C/C=C\CCCCCCCC(=O)*; Hyp = O=C(O)[CH]1C[CH](O)CN1; Cbz = O=C(OCc1ccccc1)*
Decide using growth inhibition: a value greater than or equal to 80% is met, a smaller one is not met.

| molecule | qualitativeLabel |
| --- | --- |
| CC(SC1=CC(=O)c2c(O)ccc(O)c2C1=O)C(=O)O (stereo not drawn) | not met |
| Cc1cc(C)nc(NS(=O)(=O)c2ccc(Nc3c4ccccc4nc4c(C(=O)NC(CO)(CO)CO)cccc34)cc2)n1 | not met |
| COc1cc(F)ccn1 | not met |
| COc1ccc(C2CC(c3sc(Nc4ccc(C)cc4)nc3C)=NN2)cc1 (stereo not drawn) | not met |
| Fc1ccc2nncc(SCc3ccccc3)c2c1 | met |
| Clc1nnc(Cl)s1 | not met |
| NC(=S)N/N=C/c1ccc([N+](=O)[O-])o1 | not met |
| Cc1ccc(S(=O)(=O)Oc2ccc(C(C)(C)C)cc2Cl)cc1 | not met |
| OCCN1CCN(CCCN2c3cc(Cl)ccc3Sc3ccsc32)CC1 | met |
| O=C1c2ccccc2S(=O)(=O)CC1Br (stereo not drawn) | not met |
| CCCCCCCCN(CCCCCCCC)CC(O)c1cc(OCC)nc2ccccc12 (stereo not drawn) | met |
| O=S(Nc1ccccc1Br)c1ccccc1 (stereo not drawn) | not met |
| O=C(NC(Cc1ccc(O)cc1)C(=O)NC(Cc1ccccc1)C(=O)O)OCc1ccccc1 (stereo not drawn) (Cbz-Tyr-Phe-OH; configuration not given here) | not met |
| Cc1ccc(C(Cl)(c2ccc(C)cc2)c2ccc(C)cc2)cc1 | met |
| CCC1=C(C)/C(=C/c2[nH]c(C(Br)Br)c(CC)c2C)N=C1C(Br)Br | met |
| O=[N+]([O-])c1cccn2nc(C3OC(CO)C(O)C3O)nc12 (stereo not drawn) | not met |
| Cc1c2ccccc2c(CCl)c2ccc3ccccc3c12 | met |
| O=C(Nc1ccc(Cl)c(Cl)c1)Nc1cc(Cl)ccc1Oc1ccc(Cl)cc1S(=O)(=O)O | met |
| Cn1cc(-c2c3c(cc4c2OCO4)OCO3)c2ccccc21 | met |
| CC(O)C(NC(=O)OCc1ccccc1)C(=O)OC(c1ccccc1)c1ccccc1 (stereo not drawn) | met |
| CCc1nc(N)nc(N)c1-c1ccc(N(C)Cc2ccccc2)c([N+](=O)[O-])c1 | not met |
| CC(=O)OCCn1c2nc(=O)[nH]c(=O)c-2nc2cc(C)c(C)cc21 | not met |
| CCCCC/C=C/C/C=C\CCCCCCCC(=O)NC1CC(O)C(O)NC(=O)C2C(O)C(C)CN2C(=O)C(C(C)O)NC(=O)C(C(O)C(O)c2ccc(O)cc2)NC(=O)C2CC(O)CN2C(=O)C(C(C)O)NC1=O (stereo not drawn) (X1-[ξOrn(4,5-diOH)]T[Hyp][ξhTyr(βξ-OH,γξ-OH)]T[ξPro(3ξ-OH,4ξ-Me)]; lactam 1-C; configuration not given here) | met |
| Cc1cc(=O)[nH]c2cc3oc4ccccc4c3cc12 | not met |
| O=[N+]([O-])c1ccc(CN2CCN(c3nccs3)CC2)cc1 | not met |
| CCCCCCCCCCN1CCN(C(=O)OCC)CC1 | not met |
| CC(=O)C1C(=O)C=C(C)OC1=O (stereo not drawn) | not met |
| S=c1[nH]c2cc(Cl)ccc2s1.[Zn+2] | met |
| CN(C)c1nc(N(C)C)sc(=O)n1 | not met |
| O=c1[nH]c2c([N+](=O)[O-])cc(Cl)cc2nc1/C=C(\O)c1cccc2ccccc12 | met |
| CCOC(=O)C1CCN(Cc2ccccc2)CC1=O (stereo not drawn) | met |
| CCOC(=O)C1SC(=Nc2cccc(Cl)c2C)N=C1C (stereo not drawn) | not met |
| COc1cc(OC)c(C(=O)[O][Sn]([c]2ccccc2)([c]2ccccc2)[c]2ccccc2)cc1OC | met |
| CCCCCCCCCCCCNCc1ccc(O)c(OC)c1 | met |
| O=c1[nH]c2ccc([N+](=O)[O-])cc2c2ccc(Cl)cc12 | not met |
| CN1CCN=C1c1ccc(NC(=O)Nc2ccc(NC(=O)Nc3ccc(C4=NCCN4C)cc3)cc2)cc1 | not met |
| O=C(O)CN(CCN1CC(=O)OC(=O)C1)CCN1CC(=O)OC(=O)C1 | not met |
| CCCCCCCCCCCC(=O)OC/C=C/COC(=O)c1ccccc1 | not met |
| O=C(CS)Nc1ccccc1 | met |
| Oc1ccccc1C1C=C(c2ccccc2)NC(N2CCCCC2)=C1c1nc2ccccc2[nH]1 (stereo not drawn) | not met |
